Source of measurements: the supplement of paper PMC9170038

# Tested on: MS2 coat protein
# Assay Explanation: apparent KD of MS2 coat protein; designed switch direction (-1 OFF switch, 1 ON switch): 1; higher = weaker reporter binding
# Cond: input ligand: FMN 200 uM
Reported apparent KD of MS2 coat protein by item:
The reply should consist of the numeric value with the unit placed after it.

* UAGUGCAUUAGAGGAUAUUCUUACGACACGAGUAAGACAUGAGGAUCUCCCAUGUUGUGGCAUGGGAAGAAGGCUGAUGUGCUA [Omei SS(NG)2 Bv8] (Eterna round: R96, puzzle: Same State NG 2) | 52.5 nM
* GCGAGCGUACUUGCUACAUGAGGAUCACCCAUGUUUAUUGGACAGGAUAUGGUACCGUUUCGGUACCAGAAGGGUCCACAUGUG [JL SSNG3 3.86] (Eterna round: R96, puzzle: Same State NG 3) | 106 nM

Data point: GUUACAUGAGGAUCACCCAUGUAUGUGUGGGAGUAAGUGUCUUAGGAUAUCUAUGAUUUAAUUCAAGAGAAGGAAGAUUGUUGU [JMF's solution 85] (Eterna round: R96, puzzle: Same State NG 3) ; apparent KD of MS2 coat protein = 115 nM

====

Reported apparent KD of MS2 coat protein by item:
# System: MS2 coat protein
# Assay Explanation: apparent KD of MS2 coat protein; designed switch direction (-1 OFF switch, 1 ON switch): -1; higher = weaker reporter binding
# Cond: Eterna round: R95; input ligand: microRNA oligo, concentration not stated
// return numeric value only (unit: nM, not printed)

- AGUACUAUGCGAGCUGACUUGCGUAGUGCAGCAGGUGAAACAUGAGGAUCACCCAUGUCCUCAUUUGCUCGUCUUAA [Mat - Sensor v3 - Turn-off var 2 - D3] (puzzle: Sensor v3, turn-off variant 2): 563
- UUUUAACAUGAGGAUCACCCAUGUGAGGAUAUCGAAAUUUAUAUUAAUAUUAAUUUAUCGAGAAGGCACAUUUU [JMF 32] (puzzle: Exclusion 1): 108
- UUUUUCUGUGUGAGGAUAUACUUUGUUUGGUCGUUGUAGAAGGCACAUGAGGAUCACCCAUGUAGUUUGUUGUG [JR_BME4_Sub013] (puzzle: Brourd's mod of Exclusion 4): 23
- CUGAUGUGAGGAUAUGUGAUCUGCCUUCUAUAUAGAUGAUUACAGAAGGCACAUGAGGAUCACCCAUGUAGAUC [Ex4 - 3 - 25] (puzzle: Exclusion 4): 51.8

Now for another entry.
Form field apparent KD of MS2 coat protein for item CAAAAGGUAGGAUAUUAUGCCUGUAACAUGAGGAUCACCCAUGUGGUCCGAGACGGAGUUUAAGAAGGACCGAAAA [Masomariat] (puzzle: Exclusion 5) on MS2 coat protein: 169

====

# System: MS2 coat protein
# Assay Explanation: apparent KD of MS2 coat protein; designed switch direction (-1 OFF switch, 1 ON switch): -1; higher = weaker reporter binding
# Cond: input ligand: FMN 200 uM
Reported apparent KD of MS2 coat protein by item:
// return numeric value only (unit: nM, not printed)

# count of solved cases: 6
• CCAUUCAGAGGAUAUGCGAAUAAAUAAAACUUUUUUUUUUAACAUGAGGAUCACCCAUGUAGAAGGCUGUAACC [Ex2 #44] (Eterna round: R97, puzzle: Exclusion 2) = 31.4
• CCGCUCCGUGUAGGAUAUCGGCGUACCCUGCGCCGAGAAGGACAUGAGGAUCACCCAUGUAUGUUAUUAUCACGCGUGGCGCAC [Design 74] (Eterna round: R96, puzzle: Exclusion NG 1) = 19.8
• UCUUAUAGAGGAUAUACAGAUUAUUACAUGAGGAUCACCCAUGUUCUUCAAUGUAUAUAUGUAGAAGGCUAAGGAU [Mat - Exclusion 5 - JL Mod - D9] (Eterna round: R97, puzzle: Exclusion 5) = 316
• UUUUUAUAUGAAGGAUAUACUUAACAUGAGGAUCACCCAUGUGGUGUUGUGAGUGAGUGAGUUUAGUAGAAGGUCAAUUAUUGU [JMF's solution 16] (Eterna round: R96, puzzle: Exclusion NG 2) = 2260
• CUCACGUCAGGAUAUCUACAUUAAAUUGGUAACCAAGCAUGAGAGAAGGGACAUGAGGAUCACCCAUGUAAAAC [Ceisusma] (Eterna round: R97, puzzle: Exclusion 4) = 42.4
• GUCAGCUCGUCAGGAUAUACAUGAGGAUCACCCAUGUGAUCAAUAGCAGCUUCGGCUGCAUACAUGUAGAAGGGACGAGCUGAC [ENG2/6-B1] (Eterna round: R96, puzzle: Exclusion NG 2) = 55.6

Data point: GAAAACGUAGGAUAUUAAUACUUAGACAUGAGGAUCACCCAUGUUUGGUGGGUUUAAGAAUGAGAAGGGCGAUGAA [EX5 #7] (Eterna round: R97, puzzle: Exclusion 5) ; apparent KD of MS2 coat protein = 222

Data point: AAGUGGUGAGGAUAUAUAUACCAAUCUUCGAGGCACGACCAACAUGAGGAUCACCCAUGUAGAAGGCACCACAA [Eternabot (Original) Solution 39] (Eterna round: R97, puzzle: Exclusion 2) ; apparent KD of MS2 coat protein = 32.7
